System: NCI-H226 lung
Assay: NCI tumour cell line growth inhibition, 48 h; in the data active means GI50 below about 0.43 µM; inactive means the rest
Respond only with the outcome that fits, drawn from active, inactive

// below: answered compounds
>  <Smiles Structure>
FC(F)(F)c1cc(-c2nnc3n2N=C(N2CCCC2)CS3)cc(C(F)(F)F)c1

>  <Classification>
inactive

$$$$
>  <Smiles Structure>
COc1ccc2c(c1)/C(=C\c1cccnc1)C(=O)N2

>  <Classification>
inactive

$$$$

Req: // return assay outcome for COc1cc(/C=C\c2ccc(C)cc2)cc(OC)c1OC
Resp: active

Req: Now consider C[C@H](NC(=O)[C@@H]1CSSC[C@@H](NC(=O)c2nc3ccccc3cc2O)C(=O)NCC(=O)N1C)c1ccccc1 and answer again.
Resp: inactive

Req: // next record C=CCN(/C=C1/C(=O)O[C@H](COC)[C@@]2(C)C1=C(O)C(=O)C1=C2[C@H](OC(C)=O)C[C@]2(C)C(=O)CC[C@@H]12)CC=C
Resp: inactive

Req: Then COc1cc(/C=C2\CCC/C(=C\c3cc(OC)c(O)c(OC)c3)C2=O)cc(OC)c1O ?
Resp: inactive

Req: COc1ccc(Nc2ncc(Br)c(NCCCNC(=O)C3CCC3)n2)cc1 ?
Resp: inactive

Req: Note, next up: CC1(C)CC[C@H](Nc2ncc(C(F)(F)F)c(-c3c[nH]c4c(P(C)(C)=O)c(C#N)ccc34)n2)CN1
Resp: active

Req: Moving on to the next compound: CCc1n(Cc2ccc3ccccc3n2)cc[n+]1Cc1ccc2ccccc2n1
Resp: inactive

Req: Try C1C[OH+]CC[OH+]CCNCC[OH+]CC[OH+]CCN1.[Cl-].[Pt+4] next.
Resp: inactive

Data credit: PubChem BioAssay (NCI)
